Test system: Yersinia pseudotuberculosis
PROTOCOL: growth AUC normalised to DMSO control (fraction of control); higher = less growth inhibition, active = hit call of the paper
EXPERIMENTAL_SETUP: 20 µM
Where a name gives a salt, the structure may show the parent alone.
List of growth AUC normalised to DMSO control values.
Give the figure by itself; no unit, no explanation.

Below: 3 compounds and their reported growth AUC normalised to DMSO control.
| COMPOUND | TARGET | growth AUC normalised to DMSO control |
| --- | --- | --- |
| Nc1ncnc2c1ncn2C1OC(COP(=O)(O)O)C(O)C1O (centres undefined) [Adenosine 5'-monophosphate monohydrate] | Yersinia pseudotuberculosis | 1 |
| CN(N=O)C(=O)N[C@H]1C(O)O[C@H](CO)[C@@H](O)[C@@H]1O (mixture of isomers) [Streptozotocin] | Yersinia pseudotuberculosis | 0.0388 |
| C[C@@H](O)[C@H]1C(=O)N2C(C(=O)O)=C(S[C@@H]3CN[C@H](C(=O)N(C)C)C3)[C@H](C)[C@H]12 [Meropenem] | Yersinia pseudotuberculosis | 0.0586 |

Please examine the following record next.
growth AUC normalised to DMSO control for Yersinia pseudotuberculosis with input CCN(CCCCOC(=O)c1ccc(OC)c(OC)c1)C(C)Cc1ccc(OC)cc1 (centres undefined) [Mebeverine hydrochloride] equals 1.01
